I'd be grateful if you could share measured Giant foxtail plant response rating for these entries.
Test system: giant foxtail
procedure details: Test B pre/postemergence giant foxtail
Assay type: in vivo, Setaria faberii
details: Rate 62 g/ha, Postemergence; scale of 0 to 10 where 0 is no effect and 10 is complete control
Description: […] At the same time, these crop and weed species were also treated with postemergence applications of test chemicals formulated in the same manner. […] Treated plants and controls were maintained in a greenhouse for twelve to sixteen days, after which all species were compared to controls and visually evaluated. […]
Answers are plain numbers.

Task: Which Giant foxtail plant response rating reading was recorded for the compound "Cc1nsc(C)c1-n1c(=O)on(C(=O)N(c2ccc(F)cc2)C(C)C)c1=O" ?
Output: 0

Task: Queued: "CC(C)N(C(=O)n1oc(=O)n(-c2ccc(OC(F)(F)F)cc2)c1=O)c1ccc(F)cc1"
Output: 0

Task: Queued: "CC(C)N(C(=O)n1oc(=O)n(-c2cnn(C)c2)c1=O)c1ccccc1"
Output: 3

Task: Queued: "CC(C)N(C(=O)n1oc(=O)n(-c2cccnc2)c1=O)c1ccccc1"
Output: 0

Task: Queued: "CC(C)N(Cc1ccccc1)C(=O)n1oc(=O)n(C(C)C)c1=O"
Output: 0

Below are 3 compounds. Give each one its Giant foxtail plant response rating.
1. Cc1ccccc1-n1c(=O)on(C(=O)N(c2ccc(F)cc2)C2CCC2)c1=O
2. CC(C)N(C(=O)n1oc(=O)n([C@H](C)c2ccccc2)c1=O)c1ccc(F)cc1F
3. CC(=O)C(C)n1c(=O)on(C(=O)N(c2ccc(F)cc2)C(C)C)c1=O (centres unmarked)

Output:
1. 0
2. 0
3. 5
